Source listed as the FLAb antibody collection (doi:10.7554/elife.23156).

Provide the reported pKd of each item.
B1: scFv; the commonest letter at each place (parent)
chain 1: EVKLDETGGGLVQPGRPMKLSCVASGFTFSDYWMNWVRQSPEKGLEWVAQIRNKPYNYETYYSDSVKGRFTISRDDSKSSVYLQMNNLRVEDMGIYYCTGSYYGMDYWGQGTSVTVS
chain 2: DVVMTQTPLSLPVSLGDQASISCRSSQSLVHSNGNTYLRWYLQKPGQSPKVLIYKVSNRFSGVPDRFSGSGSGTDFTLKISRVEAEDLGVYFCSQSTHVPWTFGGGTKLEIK

# Variants of: B1
# assay_protocol: Kd (Tite-Seq)
# condition_info: with fluorescein; format: scFv 4-4-20, heavy + light
pKd: −log10 of the molar value.

Query string: Query: pKd; subject: chain 1 G100V W108V
Result string: 9.07

Query string: Query: pKd; subject: chain 1 F29H V37R
Result string: 8.15

Query string: Query: pKd; subject: chain 1 Y103N M105G Y107M
Result string: ≤ 5.00

Query string: Query: pKd; subject: chain 1 D31S M34R
Result string: ≤ 5.00

Query string: Query: pKd; subject: chain 1 W33K
Result string: ≤ 5.00

Query string: Query: pKd; subject: chain 1 M34I N35W
Result string: ≤ 5.00

Query string: Query: pKd; subject: chain 1 W108K
Result string: 7.66

Query string: Query: pKd; subject: chain 1 D31E W33N
Result string: ≤ 5.00

Query string: Query: pKd; subject: chain 1 W36M V37S
Result string: ≤ 5.00

Query string: Query: pKd; subject: chain 1 M105Y W108N
Result string: ≤ 5.00

Query string: Query: pKd; subject: chain 1 S101R W108V
Result string: ≤ 5.00

Query string: Query: pKd; subject: chain 1 D31G
Result string: 8.78

Query string: Query: pKd; subject: chain 1 T28V S30D
Result string: 9.34

Query string: Query: pKd; subject: chain 1 G100Q Y107C
Result string: ≤ 5.00

Query string: Query: pKd; subject: chain 1 S101G Y103R
Result string: ≤ 5.00

Query string: Query: pKd; subject: chain 1 Y103F G104R W108Y
Result string: ≤ 5.00

Query string: Query: pKd; subject: chain 1 S30L N35T
Result string: ≤ 5.00

Query string: Query: pKd; subject: chain 1 S30P M34F
Result string: 8.74

Query string: Query: pKd; subject: chain 1 G100K D106S
Result string: ≤ 5.00

Query string: Query: pKd; subject: chain 1 Y32P W36C
Result string: ≤ 5.00

Query string: Query: pKd; subject: chain 1 F29D Y32K W33Y
Result string: 5.18

Query string: Query: pKd; subject: chain 1 T28L S30Y
Result string: 8.74

Query string: Query: pKd; subject: chain 1 S101V Y102V
Result string: ≤ 5.00

Query string: Query: pKd; subject: chain 1 Y107L G109R
Result string: ≤ 5.00

Query string: Query: pKd; subject: chain 1 T28G D31C
Result string: ≤ 5.00

Query string: Query: pKd; subject: chain 1 S101C M105I
Result string: ≤ 5.00

Query string: Query: pKd; subject: chain 1 G100M Y102V
Result string: ≤ 5.00

Query string: Query: pKd; subject: chain 1 T28D W36Q
Result string: ≤ 5.00

Query string: Query: pKd; subject: chain 1 D106R Y107D
Result string: ≤ 5.00

Query string: Query: pKd; subject: chain 1 W33N N35T
Result string: ≤ 5.00

Query string: Query: pKd; subject: chain 1 S101I Y102W
Result string: ≤ 5.00

Query string: Query: pKd; subject: chain 1 Y102S G109S
Result string: 8.53

Query string: Query: pKd; subject: chain 1 Y103C G104C
Result string: ≤ 5.00

Query string: Query: pKd; subject: chain 1 D106W Y107L
Result string: ≤ 5.00

Query string: Query: pKd; subject: chain 1 T28H W36L
Result string: ≤ 5.00

Query string: Query: pKd; subject: chain 1 D31C
Result string: 7.13

Query string: Query: pKd; subject: chain 1 G100D M105Y
Result string: ≤ 5.00

Query string: Query: pKd; subject: chain 1 M34I V37S
Result string: 7.45

Query string: Query: pKd; subject: chain 1 N35C V37L
Result string: ≤ 5.00

Query string: Query: pKd; subject: chain 1 Y102W M105E
Result string: 5.22

Query string: Query: pKd; subject: chain 1 S30Y D31T
Result string: 8.58

Query string: Query: pKd; subject: chain 1 S30I N35P
Result string: ≤ 5.00

Query string: Query: pKd; subject: chain 1 T28Q F29Q V37S
Result string: 7.20

Query string: Query: pKd; subject: chain 1 G100R
Result string: ≤ 5.00

Query string: Query: pKd; subject: chain 1 G100W Y107D G109L
Result string: ≤ 5.00

Query string: Query: pKd; subject: chain 1 S30N Y32S
Result string: 7.84

Query string: Query: pKd; subject: chain 1 G100W G104I
Result string: ≤ 5.00

Query string: Query: pKd; subject: chain 1 D31S
Result string: 8.61

Query string: Query: pKd; subject: chain 1 S30P W33E
Result string: ≤ 5.00

Query string: Query: pKd; subject: chain 1 Y32S W36F
Result string: 5.22

Query string: Query: pKd; subject: chain 1 G104T D106Y
Result string: ≤ 5.00

Query string: Query: pKd; subject: chain 1 D31V N35C
Result string: ≤ 5.00

Query string: Query: pKd; subject: chain 1 G100T M105C
Result string: ≤ 5.00

Query string: Query: pKd; subject: chain 1 Y102S D106R
Result string: ≤ 5.00

Query string: Query: pKd; subject: chain 1 T28L S30R
Result string: 9.05

Query string: Query: pKd; subject: chain 1 Y107S W108D
Result string: ≤ 5.00

Query string: Query: pKd; subject: chain 1 W36N
Result string: ≤ 5.00

Query string: Query: pKd; subject: chain 1 W36H V37E
Result string: ≤ 5.00

Query string: Query: pKd; subject: chain 1 M105W Y107C
Result string: ≤ 5.00

Query string: Query: pKd; subject: chain 1 T28Y D31W V37T
Result string: 8.20

Query string: Query: pKd; subject: chain 1 T28Y N35S
Result string: ≤ 5.00

Query string: Query: pKd; subject: chain 1 V37R
Result string: 5.97

Query string: Query: pKd; subject: chain 1 W33E W36L
Result string: ≤ 5.00

Query string: Query: pKd; subject: chain 1 Y103M Y107W
Result string: 8.69

Query string: Query: pKd; subject: chain 1 G100F M105D
Result string: ≤ 5.00

Query string: Query: pKd; subject: chain 1 D31N W36C
Result string: ≤ 5.00

Query string: Query: pKd; subject: chain 1 M34K N35A
Result string: 7.16

Query string: Query: pKd; subject: chain 1 S101C G109A
Result string: ≤ 5.00
